Reference source: patent US20240327534A1

Biological target: T1, human BCMA protein (human, UniProt Q02223 1-54, limits assumed)
T1 sequence: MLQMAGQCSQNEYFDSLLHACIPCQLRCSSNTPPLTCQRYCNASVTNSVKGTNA
Assay: affinity to human BCMA protein, method not stated
OBSERVATION_TYPE: Kd (nM)
The response must be a number in nM with no trailing unit.

Consider the reported Kd for these binders:
BINDER	MEASUREMENT_UNITS	Kd
BCMA targeting trispecific protein 01B08 (other, not shown: large carriers; small tags and cut ends, trispecific) VHH: EVQLVESGGGLVQPGRSLTLSCAASTNIESISPMGWYRQAPGKQRELVAAIHGSSTLYADSVKGRFTISRDNAKNSIYLQMNSLRPEDTALYYCNKVPWGRYHPRNVYWGQGTQVTVSS	nM	25.6
BCMA targeting trispecific protein 01H08 (other, trispecific; also called 01H08 TriTAC; not shown: the C-terminal His6 follows those missing domains and is left out) VHH: EVQLVESGGGLVQPGRSLTLSCAASTNIMSISPMGWYRQAPGKQRELVAAIHGFSTVYADSVKGRFTISRDNAKNSIYLQMNSLRPEDTALYYCNKVPWGDYHPGNVYWGQGTQVTVSS	nM	2.86
BCMA targeting trispecific protein 02B11 (other, trispecific; not shown: anti-albumin domain, anti-CD3 domain and the linkers of the trispecific (TriTAC) format) VHH: EVQLVESGGGLVQPGRSLTLSCAASTNIVSISPMGWYRQAPGKQRELVAAIHGDSTLYADSVKGRFTISRDNAKNSIYLQMNSLRPEDTALYYCNKVPWGDYHPRNVSWGQGTQVTVSS	nM	13.3

Consider now this further binder.
Query :: Consider the binder BCMA targeting trispecific protein 01B07 (other, not shown: large carriers; small tags and cut ends, trispecific) VHH: EVQLVESGGGLVQPGRSLTLSCAASTNIFSRSPMGWYRQAPGKQRELVAAIHGNSTLYADSVKGRFTISRDNAKNSIYLQMNSLRPEDTALYYCNKVPWGIYHPRNVYWGQGTQVTVSS . State its measured Kd.
Result :: 43.9
